measured-parameter: melting point

# count of solved cases: 5
Task item: What does the record list as melting point for COCCCNS(=O)(=O)NC(=O)/C(C)=C/c1ccc(OCCOC)cc1Oc1ncc(C(F)(F)F)cc1Cl [Example 227] ?
Reply: 121 to 122 °C

Task item: What does the record list as melting point for CCCCCS(=O)(=O)NC(=O)/C=C/c1ccc(OCCOC)cc1OCC1CCCCC1 [Example 158] ?
Reply: 97.5 to 98.3 °C

Task item: What does the record list as melting point for CC(C)Oc1cc(CCC(=O)NS(=O)(=O)c2ccc(C(F)(F)F)cc2)n(Cc2ccc(Cl)cc2Cl)n1 [Example 83] ?
Reply: 167 to 169 °C

Task item: What does the record list as melting point for CCCCCC(=O)NS(=O)(=O)/C=C/c1cc(OC(C)C)nn1Cc1ccc(Cl)cc1Cl [Example 125] ?
Reply: 73 to 75 °C

Task item: What does the record list as melting point for CC(C)CCS(=O)(=O)NC(=O)/C=C/c1cc(OC2CCOCC2)nn1Cc1ccc(C(F)(F)F)cc1Cl [Example 153] ?
Reply: 149.5 to 152.5 °C

***
Task item: What does the record list as melting point for CCOCCNS(=O)(=O)NC(=O)OCc1ccc(OCCOC)cc1Oc1ncc(C(F)(F)F)cc1Cl [Example 76] ?
Reply: 142.5 to 143 °C

Task item: What does the record list as melting point for CCCCCC(=O)NS(=O)(=O)CCc1cc(OCCCC)nn1Cc1ccc(Cl)cc1Cl [Example 128] ?
Reply: 90 to 92 °C

###

melting point listing for selected compounds.

Task item: What does the record list as melting point for COCCOc1ccc(CCC(=O)NS(N)(=O)=O)c(Oc2ncc(C(F)(F)F)cc2Cl)c1 ?
Reply: 158 to 159 °C

***
Task item: What does the record list as melting point for CCCCOc1cc(CCS(=O)(=O)NC(=O)OCCOC)n(Cc2ccc(Cl)cc2Cl)n1 ?
Reply: 82 to 86 °C

Task item: What does the record list as melting point for CCCCCS(=O)(=O)NC(=O)/C=C/c1ccc(OCC(C)=O)cc1Oc1ncc(C(F)(F)F)cc1Cl ?
Reply: 187 to 188 °C

Task item: What does the record list as melting point for COCCOc1ccc(/C=C/C(=O)NS(=O)(=O)C(F)(F)F)c(Oc2ncc(C(F)(F)F)cc2Cl)c1 ?
Reply: 125.5 to 128 °C

Task item: What does the record list as melting point for COCCOc1ccc(/C=C/COC(=O)NS(=O)(=O)NCCc2ccccc2)c(Oc2ncc(C(F)(F)F)cc2Cl)c1 ?
Reply: 113 to 114 °C

Task item: What does the record list as melting point for CCCCCS(=O)(=O)NC(=O)/C=C/c1cc(OCCCC)nn1Cc1ccc(C(F)(F)F)cc1 ?
Reply: 159 to 160 °C

Task item: What does the record list as melting point for CCCCCS(=O)(=O)NC(=O)CCc1ccc(OCCOC)cc1OCc1ccc(Cl)cc1Cl ?
Reply: 106.7 to 108.2 °C

Task item: What does the record list as melting point for CCCCCS(=O)(=O)NC(=O)CCc1ccc(OCCOC)cc1OCC1CCCCC1 ?
Reply: 81 to 82 °C

Task item: What does the record list as melting point for CCCCCS(=O)(=O)NC(=O)/C=C/c1ccc(OCCC2(C)OCCO2)cc1Oc1ncc(C(F)(F)F)cc1Cl ?
Reply: 90 to 92 °C

Task item: What does the record list as melting point for COCCOc1ccc(/C=C/C(=O)NS(=O)(=O)c2ccc(F)cc2)c(Oc2ncc(C(F)(F)F)cc2Cl)c1 ?
Reply: 183 to 184 °C

Task item: What does the record list as melting point for COCCOc1ccc(CCCNS(=O)(=O)c2ccc(Cl)cc2)c(Oc2ncc(C(F)(F)F)cc2Cl)c1 ?
Reply: 111 to 113 °C

Task item: What does the record list as melting point for COCCOc1ccc(/C=C/C(=O)NS(=O)(=O)NCCc2ccccc2)c(Oc2ncc(C(F)(F)F)cc2Cl)c1 ?
Reply: 85 to 85.5 °C

Task item: What does the record list as melting point for CCCCCS(=O)(=O)NC(=O)/C=C/c1ccc(OCCOC)cc1Oc1ncc(-c2ccccc2)cc1C ?
Reply: 132.8 to 133.5 °C

Task item: What does the record list as melting point for CC(C)CCS(=O)(=O)NC(=O)/C=C/c1cc(C2CC2)nn1Cc1ccc(C(F)(F)F)cc1Cl ?
Reply: 145 to 147 °C

Task item: What does the record list as melting point for COCCOc1ccc(CCCNS(=O)(=O)c2ccccc2)c(Oc2ncc(C(F)(F)F)cc2Cl)c1 ?
Reply: 94 to 95 °C

Task item: What does the record list as melting point for CCCCCS(=O)(=O)NC(=O)/C(=C/c1ccc(OCCOC)cc1Oc1ncc(Cl)cc1Cl)CC ?
Reply: 118 to 118.4 °C
